Source of measurements: ChEMBL document CHEMBL3045772

tested on: Mus musculus; test: Anti-inflammatory activity in Mus musculus Swiss albino (mouse) assessed as inhibition of carrageenan-induced edema at 100 mg/kg, po pretreated 60 min before carrageenan-challenge measured after 90 min; assay type: functional
Output Condition met for inhibition in vivo at 100 mg/kg not less than 7%; output Condition not met otherwise.

Problem: Is the recorded value of inhibition in vivo at 100 mg/kg equal to or greater than 7% for this compound? `O=C(Cn1c(=O)sc2cc(C(=O)c3ccccc3)ccc21)Nc1ccccc1`
Solution: Condition not met

Problem: Is the recorded value of inhibition in vivo at 100 mg/kg equal to or greater than 7% for this compound? `O=C(Cn1c(=O)sc2cc(C(=O)c3ccccc3Cl)ccc21)Nc1ccc(Cl)cc1`
Solution: Condition met

Problem: Is the recorded value of inhibition in vivo at 100 mg/kg equal to or greater than 7% for this compound? `O=C(Cn1c(=O)sc2cc(C(=O)c3ccccc3)ccc21)Nc1cccc(Cl)c1`
Solution: Condition not met

Problem: Is the recorded value of inhibition in vivo at 100 mg/kg equal to or greater than 7% for this compound? `O=C(Cn1c(=O)sc2cc(C(=O)c3ccccc3F)ccc21)Nc1ccc(Cl)cc1`
Solution: Condition met

Problem: Is the recorded value of inhibition in vivo at 100 mg/kg equal to or greater than 7% for this compound? `O=C(Cn1c(=O)sc2cc(C(=O)c3ccccc3)ccc21)Nc1ccc(Cl)cc1`
Solution: Condition not met

Problem: Is the recorded value of inhibition in vivo at 100 mg/kg equal to or greater than 7% for this compound? `O=C(Cn1c(=O)sc2cc(C(=O)c3ccccc3Cl)ccc21)Nc1ccccc1`
Solution: Condition not met

Problem: Is the recorded value of inhibition in vivo at 100 mg/kg equal to or greater than 7% for this compound? `Cc1ccnc(NC(=O)Cn2c(=O)sc3cc(C(=O)c4ccccc4F)ccc32)c1`
Solution: Condition not met
